Target: Protein skinhead-1 (Caenorhabditis elegans, UniProt P34707)
Sequence (P34707 whole entry): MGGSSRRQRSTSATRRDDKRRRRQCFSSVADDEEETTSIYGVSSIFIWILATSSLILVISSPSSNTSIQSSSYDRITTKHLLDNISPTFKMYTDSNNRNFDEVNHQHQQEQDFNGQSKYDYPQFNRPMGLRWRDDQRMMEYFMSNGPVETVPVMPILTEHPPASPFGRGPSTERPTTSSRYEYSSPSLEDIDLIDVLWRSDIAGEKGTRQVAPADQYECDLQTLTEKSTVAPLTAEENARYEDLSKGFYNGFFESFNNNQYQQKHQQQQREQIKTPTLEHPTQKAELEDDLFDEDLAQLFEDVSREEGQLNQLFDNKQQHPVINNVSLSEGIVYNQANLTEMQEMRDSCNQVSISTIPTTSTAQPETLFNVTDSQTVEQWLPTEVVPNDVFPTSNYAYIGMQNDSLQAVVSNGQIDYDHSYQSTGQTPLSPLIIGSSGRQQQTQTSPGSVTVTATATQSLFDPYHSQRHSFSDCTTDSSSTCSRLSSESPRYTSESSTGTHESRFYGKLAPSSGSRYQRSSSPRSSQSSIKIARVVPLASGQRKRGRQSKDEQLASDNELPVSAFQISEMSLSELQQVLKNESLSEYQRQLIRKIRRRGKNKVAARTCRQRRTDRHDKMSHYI
Assay type: functional
Active and inactive are the calls of the source.
Field 'call' accepts YES (active), NO (inactive)

Examples from the recorded data:
INSERT INTO measurements (compound, answer_label) VALUES
  ('O=C1NC2C(=CC(O)C(O)C2O)c2cc3c(cc21)OCO3 (stereo not given)', 'NO'),
  ('O=C(Nc1ccc(CN2CCOCC2)cc1)c1cc2ccccc2o1', 'YES'),
  ('CNc1ccc(C=C2C=Cc3ccccc32)cc1', 'YES'),
  ('Fc1ccc2cc(-c3ccccc3)ncc2c1', 'NO');

Here's the next entry for you.
INPUT: What outcome does the record of this test show for CC(C)OC(=O)CSc1nnc(SCc2cccc3ccccc23)s1 ?
OUTPUT: NO
